biological target: Bcat-Halo (beta-catenin HaloTag construct expressed in HEK293 cells) (UniProt P35222); test: NanoBRET IC50 in HEK293 cells; Bcat-Halo with TCF4-Luc as competitor
Sequence (P35222 whole entry): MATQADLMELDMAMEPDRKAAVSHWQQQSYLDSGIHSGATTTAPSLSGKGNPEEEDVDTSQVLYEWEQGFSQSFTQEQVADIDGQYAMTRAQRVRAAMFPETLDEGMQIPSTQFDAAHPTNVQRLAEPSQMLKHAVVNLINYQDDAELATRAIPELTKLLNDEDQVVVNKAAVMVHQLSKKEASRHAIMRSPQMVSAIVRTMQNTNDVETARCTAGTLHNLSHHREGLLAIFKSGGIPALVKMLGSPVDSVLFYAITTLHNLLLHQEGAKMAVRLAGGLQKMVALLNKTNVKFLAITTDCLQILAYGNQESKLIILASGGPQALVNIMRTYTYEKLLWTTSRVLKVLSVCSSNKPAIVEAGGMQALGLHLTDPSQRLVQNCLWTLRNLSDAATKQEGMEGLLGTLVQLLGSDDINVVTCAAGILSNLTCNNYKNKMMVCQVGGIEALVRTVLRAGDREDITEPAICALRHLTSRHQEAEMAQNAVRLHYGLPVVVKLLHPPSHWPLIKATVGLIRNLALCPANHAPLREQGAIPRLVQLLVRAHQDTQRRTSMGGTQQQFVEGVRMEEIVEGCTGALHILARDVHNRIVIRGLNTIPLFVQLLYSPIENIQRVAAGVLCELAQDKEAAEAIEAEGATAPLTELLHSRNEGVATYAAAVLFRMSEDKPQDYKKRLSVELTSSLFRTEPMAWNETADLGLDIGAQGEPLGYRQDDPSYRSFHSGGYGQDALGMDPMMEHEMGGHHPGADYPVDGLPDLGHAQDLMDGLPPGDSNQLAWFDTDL
pIC50: −log10 of the molar value. Starred links: 1 amine or outer side, 2 acyl side, 3 side chain; linkers in the order of their positions; H or OH if unused. Positions of bridges follow the written chain, without caps; N, C: chain ends. Non-standard residues stand in square brackets, D forms with d. Primed or numbered codes have the meaning given here. B5(4) = 2,2-bis(4-pentenyl)glycine = 2-amino-2-(pent-4-en-1-yl)hept-6-enoic acid (stitching residue), C=CCCCC(CCCC=C)(N[*:1])C(=O)[*:2]; PyrS2 = (S)-3-amino-1-((pent-4-en-1-yloxy)carbonyl)pyrrolidine-3-carboxylic acid, C=CCCCOC(=O)N1CC[C@@](N[*:1])(C(=O)[*:2])C1; B5(12) = 2-amino-2-(pent-4-en-1-yl)hept-6-enoic acid (two olefin side chains), C=CCCCC(CCCC=C)(N[*:1])C(=O)[*:2]; Bta = N[C@@H](Cc1csc2ccccc12)C(=O)O; αAllylPro = C=CC[C@@]1(C(=O)O)CCCN1; tBuAla = CC(C)(C)C[C@H](N)C(=O)O; 3Thi = N[C@@H](Cc1ccsc1)C(=O)O
readout: pIC50

[P] Ac-[αAllylPro]D[tBuAla][B5(4)]DTAAFN[PyrS2][3Thi][Bta]Q-NH2 (staple 1-4, 4-11) [I-844]
[Q] Ac-[αAllylPro]D[tBuAla][B5(12)]DHAAFN[PyrS2][3Thi][Bta]Q-NH2 (staple 1-4, 4-11) [I-864]
[R] Ac-[αAllylPro]D[tBuAla][B5(12)]DNAAFN[PyrS2][3Thi][Bta]-NH2 (staple 1-4, 4-11) [I-857]
Enquiry: Ordering criterion: pIC50; begin with the maximum. State the ranking by listing the labels in the requested order.
Return: P, Q, R
(P: 4.97, Q: 4.54, R: 4.30)

Data origin: patent US20240116985A1
